Test system: P94_40
Experiment: qHTS profiling for inhibitors of Plasmodium falciparum proliferation (AID 504749); further: nearly all actives have a fitted effect of over 60% in size
Conditions: P. falciparum in erythrocytes, SYBR Green DNA, 72 h; series mostly up to 28.7 µM
Records with an inconclusive call do not appear. Active and inactive are the calls of the source. The call rests on the fitted dose curve; in most records, active means well fitted inhibition curve with a large enough effect; inconclusive means small, poorly fitted or top-dose-only effect; inactive means flat fitted curve, though single readings scatter.
Please answer using one outcome listed in active, inactive

Example entries begin here.
query: Answer briefly: the call reported for Nc1nc2c(ncn2COCCO)c(=O)[nH]1 in this assay.
result: inactive

query: Note, next up: CC(=O)Oc1ccccc1C(=O)O
result: inactive

query: Note, next up: O=c1n(CCCN2CCN(c3cccc(Cl)c3)CC2)nc2ccccn12
result: inactive

query: Note, next up: NCCCC(N)(C(=O)O)C(F)F (stereo unspecified)
result: inactive

query: Note, next up: Cc1c(C)c2c(c(C)c1O)CCC(C)(COc1ccc(CC3SC(=O)NC3=O)cc1)O2 (stereo unspecified)
result: active

Could you now look at the following compound, please?
query: Answer briefly: the call reported for N#Cc1ccc(C(c2ccc(C#N)cc2)n2cncn2)cc1 in this assay.
result: inactive

---

System: CP194
Test: qHTS profiling for inhibitors of Plasmodium falciparum proliferation (AID 504749); further: nearly all actives have a fitted effect of over 60% in size
Conditions: P. falciparum in erythrocytes, SYBR Green DNA, 72 h; series mostly up to 28.7 µM
Inconclusive results are not listed. The source made the active and inactive calls. The call rests on the fitted dose curve; in most records, active means well fitted inhibition curve with a large enough effect; inconclusive means small, poorly fitted or top-dose-only effect; inactive means flat fitted curve, though single readings scatter.
Please answer using one outcome listed in y = active, n = inactive

Example entries begin here.
query: Answer briefly: the call reported for Cc1[nH]c(=O)c(C#N)cc1-c1ccc2nccn2c1 in this assay.
result: n

query: Note, next up: Cc1oncc1C(=O)Nc1ccc(C(F)(F)F)cc1
result: n

query: Note, next up: Nc1nc2ccc(OC(F)(F)F)cc2s1
result: n

query: Note, next up: NC[C@H](O)c1ccc(O)c(O)c1
result: n

query: Note, next up: N=c1nc(N2CCCCC2)cc(N)n1O
result: n

Could you now look at the following compound, please?
query: Answer briefly: the call reported for COc1ccc2nc(S(=O)Cc3ncc(C)c(OC)c3C)[nH]c2c1 (stereo unspecified) in this assay.
result: n

---

Assay: qHTS of pediatric cancer cell lines to identify multiple opportunities for drug repurposing: Confirmatory screen for SK-N-SH cells (AID 1347129);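 further: cells exposed to compound for 48 h before viability read; nearly all actives have a fitted effect of over 60% in size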
Settings: SK-N-SH neuroblastoma cell viability; series mostly up to 46.1 µM
Results filed as inconclusive are left out. The source made the active and inactive calls. The call rests on the fitted dose curve; in most records, active means well fitted cell-killing curve with a large enough effect; inconclusive means small, poorly fitted or top-dose-only effect; inactive means flat fitted curve, though single readings scatter.
Please answer using one outcome listed in active, inactive

Example entries begin here.
query: Answer briefly: the call reported for COc1ccc(-c2oc3cc(OC)ccc3c2C(=O)c2ccc(C#N)cc2)cc1 in this assay.
result: inactive

query: Note, next up: Oc1cccc(-c2nc(N3CCOCC3)c3oc4ncccc4c3n2)c1
result: active

query: Note, next up: NCCCC(N)(C(=O)O)C(F)F (stereo not given)
result: inactive

query: Note, next up: CCC(C)(C)C(=O)O[C@H]1C[C@@H](C)C=C2C=C[C@H](C)[C@H](CC[C@@H]3C[C@@H](O)CC(=O)O3)[C@H]21
result: active

query: Note, next up: O=NN(CCCl)C(=O)NCCCl
result: inactive

query: Note, next up: CCCS(=O)(=O)Nc1ccc(F)c(C(=O)c2c[nH]c3ncc(-c4ccc(Cl)cc4)cc23)c1F
result: inactive

query: Note, next up: CC(C=CC1=C(C)CCCC1(C)C)=CC=CC(C)=CC(=O)O
result: inactive

query: Note, next up: COc1ccc(-c2ccc3c(N4CCOCC4)nc(N4C[C@@H](C)O[C@@H](C)C4)nc3n2)cc1CO
result: active

query: Note, next up: COc1cccc2cc(-c3nc(C4CCC(C(=O)O)CC4)n4ncnc(N)c34)[nH]c12 (stereo not given)
result: active

Could you now look at the following compound, please?
query: Answer briefly: the call reported for CCOc1ccn(-c2ccc(F)cc2)c(=O)c1C(=O)Nc1ccc(Oc2ccnc(N)c2Cl)c(F)c1 in this assay.
result: inactive
